- Test system: SK-OV-3 ovarian
- test: NCI-60 one-dose screen, 48 h (100 = growth as untreated, 0 = no growth, -100 = all killed)
- assay.conditions: 10 µM unless noted
About 83,000 compounds went through this panel and 20% of them were active in at least one assay; those are over-represented in the sample as a whole.
property.measured: growth (%)

• CCC(=O)NC1=C(Cl)C(=O)C(NC(=O)CC)=C(Cl)C1=O = 99.9
• COc1cc(C2CC(c3cccc(Nc4ccnc5cc(Cl)ccc45)c3)=NN2C=O)cc(OC)c1OC (stereo unspecified) = 0.586
• O/N=C1\c2ccccc2-c2ccc(Br)cc21 = 113
• O=C1/C(=C/c2ccccc2)SC(=Nc2ccccc2)N1Nc1ccccc1 = 10.5
• O=S1(=O)NCCN1CCNc1nccc(-c2c(-c3cccc(O)c3)nc3sccn23)n1 = 97.4
• CC(=O)Nc1ccc(/C=N/N2CCCCCC2)cc1 = 99.9
• c1cc2c(cc1-c1cnc3nonc3n1)OCO2 = 82.8
• C#CCNc1nc(NCCNC(=O)CCl)nc(N(C)CCCCc2ccccc2)n1 = 101
• COc1ccc(-n2c(COc3ccc(F)cc3)n[nH]c2=S)cc1 = 109
• COc1ccc(-c2conc2-n2nc(-c3ccccc3)nc2-c2ccccc2)cc1 = 107
• N/N=C(\C(=N\N)c1ccccc1)c1ccccc1 = 99.4

###

- System: CAKI-1 renal
- test: NCI-60 one-dose screen, 48 h
- assay.conditions: 10 µM unless noted
About 83,000 compounds went through this panel and 20% of them were active in at least one assay; those are over-represented in the sample as a whole. Activity calls are given as the source filed them. The calls were made as follows: active = growth percent below 10; inactive = the rest.
Labels: active, inactive

* Cc1[nH]c2ccccc2c1C1=CC(=O)C=CC1=O | inactive
* c1cn2cc(-c3ccc4ncn(C5CCCCC5)c4c3)nc(-c3ccc4c(c3)ncn4C3CCCCC3)c2n1 | inactive
* CC(C)c1ccc2c(c1)CCC1C2CCCC1(C)NCc1ccccc1 (configuration not stated) | inactive
* CC(C)(C)c1ccc(OC(=O)Nc2ccccc2)cc1 | inactive
* CC1=C(/C=C/C(C)=C/C=C(C(=O)O)\C(C)=C\C(=O)O)C(C)(C)CCC1 | inactive
* CC[C@H](C)[C@H](N)C(=O)O | inactive
* O=C(CC(=O)c1ccccc1F)Nc1ccc([N+](=O)[O-])cc1 | inactive
* Cc1cc([N+](=O)[O-])c(C)cc1N | inactive
* O=C(Cc1ccc([N+](=O)[O-])cc1)Oc1ccccc1 | inactive
* c1cc2c(cc1-c1cnc3nonc3n1)OCO2 | inactive
* COc1ccc(N=C2CSc3nnc(-c4cc(F)c(Cl)cc4Cl)n3N2)cc1 | active
* CCN(CC)c1ccc(/C=N/NC(=O)c2ccc(S(C)(=O)=O)cc2)c(O)c1 | inactive
* O=C(O)CSc1ccc(NCc2oc(CO)cc(=O)c2O)cc1 | inactive
* CCCCCCCCCCCCCCCCCC1=NCCN1CCO | inactive
* O=C1/C=C/[C@@H](O)[C@@H]2C[C@@H](O)C[C@H]2/C=C/CCC[C@H]([C@@H](O)CO)O1 | inactive
* CC(=O)OC[C@H]1O[C@@H](n2c(=O)cc(N)[nH]c2=O)C(OC(C)=O)[C@@H]1OC(C)=O (some centres not stated) | inactive
* O=C(O/C(=C/c1ccccc1)C(F)(F)F)c1ccccc1 | inactive
* CC(C)CCSc1nc(-c2ccc(F)cc2)c(C#N)c(N2CCN(C)CC2)n1 | inactive
* CN1C2CCC1/C(=C\c1ccc(F)cc1)C(=O)/C2=C/c1ccc(F)cc1 | inactive
* O=C1/C(=C/N2N=C(c3ccc(Cl)cc3)CC2c2ccccc2O)SC(=S)N1c1cccc(C(F)(F)F)c1 (configuration not stated) | inactive
* COc1ccc(CNc2c3ccccc3nc3ccccc23)cc1F | inactive
* CCN(CC)CCNC(=O)C(F)(F)C(F)(F)C(F)(F)F | inactive

These measurements were taken from PubChem BioAssay (NCI).
